TEST DETAILS: motesanib plasma pharmacokinetics in patients
Format: in vivo, human
CONDITIONS: human, in vivo, mean daily motesanib C 24 (higher than IC90 for HUVEC proliferation)
Protocol: Plasma motesanib and gemcitabine concentrations were analyzed using a validated liquid chromatography/tandem mass spectrometry (LC-MS/MS) method, respectively. […] All pharmacokinetic parameter estimates were calculated using standard noncompartmental methods and WinNonlin Professional software on […] (Version 5.1.1, Pharsight Corporation, Mountain View, Calif, USA).
REPORTED ENDPOINT: concentration at 24 h

Using known records, supply concentration at 24 h for CC1(C)CNc2cc(NC(=O)c3cccnc3NCc3ccncc3)ccc21 [motesanib]
> 28 ng/mL
